Would you kindly list Dmax for each of these molecules?
TESTED ON: BRG1 (Homo sapiens, UniProt P51532)
Construct: either BRM primary antibody (Cell signaling Cat #11966) or BRG primary antibody (Abcam, ab 110641); endogenous in cells; host or cells: SW1573
Sequence (P51532 whole entry): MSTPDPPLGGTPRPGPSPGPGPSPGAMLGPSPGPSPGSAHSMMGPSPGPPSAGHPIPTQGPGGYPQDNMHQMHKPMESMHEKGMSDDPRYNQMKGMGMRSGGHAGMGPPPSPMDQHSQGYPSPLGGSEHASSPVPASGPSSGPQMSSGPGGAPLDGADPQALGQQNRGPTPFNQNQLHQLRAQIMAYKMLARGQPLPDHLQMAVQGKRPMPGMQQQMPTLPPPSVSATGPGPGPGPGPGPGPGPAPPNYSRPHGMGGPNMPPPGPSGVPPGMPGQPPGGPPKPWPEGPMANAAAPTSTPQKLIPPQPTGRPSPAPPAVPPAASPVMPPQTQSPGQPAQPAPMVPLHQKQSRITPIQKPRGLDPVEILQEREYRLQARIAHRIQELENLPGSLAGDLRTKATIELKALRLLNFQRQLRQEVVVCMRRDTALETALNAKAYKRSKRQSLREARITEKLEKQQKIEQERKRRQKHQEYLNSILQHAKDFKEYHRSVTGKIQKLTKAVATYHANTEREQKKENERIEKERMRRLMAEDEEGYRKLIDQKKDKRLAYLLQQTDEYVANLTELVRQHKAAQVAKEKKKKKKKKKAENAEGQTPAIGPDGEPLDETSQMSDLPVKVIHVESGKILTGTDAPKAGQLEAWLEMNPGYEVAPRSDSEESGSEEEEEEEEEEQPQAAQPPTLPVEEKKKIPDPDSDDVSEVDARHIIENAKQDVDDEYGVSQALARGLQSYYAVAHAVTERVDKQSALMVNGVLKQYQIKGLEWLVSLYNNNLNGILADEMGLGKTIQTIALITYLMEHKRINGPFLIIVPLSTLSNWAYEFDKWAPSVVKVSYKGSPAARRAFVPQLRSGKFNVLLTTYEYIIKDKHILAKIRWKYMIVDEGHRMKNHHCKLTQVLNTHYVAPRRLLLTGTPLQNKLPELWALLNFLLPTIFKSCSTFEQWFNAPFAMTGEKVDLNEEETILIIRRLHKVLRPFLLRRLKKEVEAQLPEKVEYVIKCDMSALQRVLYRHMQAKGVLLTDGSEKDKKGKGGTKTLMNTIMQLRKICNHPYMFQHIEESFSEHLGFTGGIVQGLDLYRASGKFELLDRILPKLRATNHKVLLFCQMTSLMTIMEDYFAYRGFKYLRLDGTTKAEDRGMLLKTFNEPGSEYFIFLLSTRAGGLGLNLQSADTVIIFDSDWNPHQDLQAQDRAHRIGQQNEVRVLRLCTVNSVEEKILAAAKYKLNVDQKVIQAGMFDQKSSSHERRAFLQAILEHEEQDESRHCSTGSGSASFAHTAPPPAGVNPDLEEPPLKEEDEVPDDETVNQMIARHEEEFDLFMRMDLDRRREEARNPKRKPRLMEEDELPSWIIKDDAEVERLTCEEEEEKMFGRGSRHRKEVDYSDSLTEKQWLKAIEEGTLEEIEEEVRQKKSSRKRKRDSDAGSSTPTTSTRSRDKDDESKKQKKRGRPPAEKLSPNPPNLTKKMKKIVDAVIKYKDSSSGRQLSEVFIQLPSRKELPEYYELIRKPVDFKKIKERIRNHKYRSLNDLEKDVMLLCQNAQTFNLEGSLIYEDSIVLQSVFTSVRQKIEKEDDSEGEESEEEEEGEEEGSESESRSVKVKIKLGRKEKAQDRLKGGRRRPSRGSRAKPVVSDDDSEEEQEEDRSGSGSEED
EXPERIMENT DESCRIPTION: Immunofluorescence assay for BRG1 degradation in SW1573 cells
Type: cell-based
CONDITION SET: SW1573, 20 h, 20 hours incubation, normalized to a known degrader control, read-out: BRG1 IF Degradation Sinf (%)
Method: Example B-2: Immunofluorescence Assay for BRM and BRG1 Degraders SW1573 cells were seeded at 3000 cells/well in 384 well plates. The next day, compounds were added using an Echo dispenser. […] Harmony software (Perking Elmer) was used to quantify the mean nuclear signaling intensity of BRM or BRG signaling per cell in each well. Dose responses were determined from the concentration dependent response of mean nuclear signal intensity with data normalized to a known degrader control. […]

Sample CNC(=O)[C@@H]1CCCN1CC#Cc1cc(N2C3CCC2CN(c2cc(-c4ccccc4O)nnc2N)C3)ccn1 — what was its Dmax?
30 to 70%

Sample CC1CCCN(CC#Cc2cc(N3C4CCC3CN(c3cc(-c5ccccc5O)nnc3N)C4)ccn2)C1 (stereo not drawn) — what was its Dmax?
30 to 70%

Sample Nc1nnc(-c2ccccc2O)cc1N1CC2CCC(C1)N2c1ccnc(C#CCN2CCCC2)c1 — what was its Dmax?
30 to 70%

Sample Nc1nnc(-c2ccccc2O)cc1N1CC2CCC(C1)N2c1ccnc(C#CCN2C3COCC2CC(F)C3)c1 (stereo not drawn) — what was its Dmax?
0 to 30%

Sample CC1CCCN(CC#Cc2cc(N3C4CCC3CN(c3cc(-c5ccccc5O)nnc3N)C4)ccn2)CC1C (stereo not drawn) — what was its Dmax?
30 to 70%

Sample CC1(CO)CN(CC#Cc2cc(N3C4CCC3CN(c3cc(-c5ccccc5O)nnc3N)C4)ccn2)C1 — what was its Dmax?
30 to 70%

Sample Nc1nnc(-c2ccccc2O)cc1N1CC2CCC(C1)N2c1ccnc(C#CCN2CCCCCC2CO)c1 (stereo not drawn) — what was its Dmax?
71 to 120%

Sample Nc1nnc(-c2ccccc2O)cc1N1CC2CCC(C1)N2c1ccnc(C#CCN2CCC3(CCCC3)C2)c1 — what was its Dmax?
30 to 70%

Sample Nc1nnc(-c2ccccc2O)cc1N1CC2CCC(C1)N2c1ccnc(C#CCN2C[C@@H]3C[C@@H](O)[C@H]2C3)c1 — what was its Dmax?
30 to 70%

Sample Nc1nnc(-c2ccccc2O)cc1N1CC2CCC(C1)N2c1ccnc(C#CCN2CCCOCC2)c1 — what was its Dmax?
30 to 70%

Sample CN(CC#Cc1cc(N2C3CCC2CN(c2cc(-c4ccccc4O)nnc2N)C3)ccn1)C1CCS(=O)(=O)C1 (stereo not drawn) — what was its Dmax?
30 to 70%

Sample Nc1nnc(-c2ccccc2O)cc1N1CC2CCC(C1)N2c1ccnc(C#CCN2CCn3ccnc3C2)c1 — what was its Dmax?
0 to 30%

Sample CC1CN(CC#Cc2cc(N3C4CCC3CN(c3cc(-c5ccccc5O)nnc3N)C4)ccn2)C1C (stereo not drawn) — what was its Dmax?
30 to 70%

Sample Nc1nnc(-c2ccccc2O)cc1N1CC2CCC(C1)N2c1ccnc(C#CCN2CC3CC2(CO)C3)c1 — what was its Dmax?
0 to 30%

Sample Nc1nnc(-c2ccccc2O)cc1N1CC2CCC(C1)N2c1ccnc(C#CCOC2CCCNC2)c1 (stereo not drawn) — what was its Dmax?
0 to 30%
